System: CCRF-CEM
Experiment: Effective concentration required to inhibit HIV-2 ROD in CEM cell culture
Type: functional, cell-based
Conditions: Homo sapiens
A collection of compounds and their measured EC50

compound	EC50
Cc1cn([C@@H]2O[C@H](CO[Si](C)(C)C(C)(C)C)[C@@]3(OS(=O)(=O)C=C3NCCC(=O)O)[C@H]2O[Si](C)(C)C(C)(C)C)c(=O)n(C)c1=O	> 10 µM
Cc1cn([C@@H]2O[C@H](CO[Si](C)(C)C(C)(C)C)[C@@]3(OS(=O)(=O)C=C3NC(=O)c3ccccc3)[C@H]2O[Si](C)(C)C(C)(C)C)c(=O)n(C)c1=O	> 5 µM
C=C(C)C(=O)NC(=O)NC1=CS(=O)(=O)O[C@@]12[C@@H](CO[Si](C)(C)C(C)(C)C)O[C@@H](n1cc(C)c(=O)n(C)c1=O)[C@@H]2O[Si](C)(C)C(C)(C)C	> 0.8 µM
CCNC(=O)NC1=CS(=O)(=O)O[C@@]12[C@@H](CO[Si](C)(C)C(C)(C)C)O[C@@H](n1cc(C)c(=O)n(C)c1=O)[C@@H]2O[Si](C)(C)C(C)(C)C	> 2 µM
CC(=O)NC1=CS(=O)(=O)O[C@@]12[C@@H](CO[Si](C)(C)C(C)(C)C)O[C@@H](n1cc(C)c(=O)n(C)c1=O)[C@@H]2O[Si](C)(C)C(C)(C)C	> 25 µM
COC(=O)CCNC1=CS(=O)(=O)O[C@@]12[C@@H](CO[Si](C)(C)C(C)(C)C)O[C@@H](n1cc(C)c(=O)n(C)c1=O)[C@@H]2O[Si](C)(C)C(C)(C)C	> 250 µM
COC(=O)C(=O)NC1=CS(=O)(=O)O[C@@]12[C@@H](CO[Si](C)(C)C(C)(C)C)O[C@@H](n1cc(C)c(=O)n(C)c1=O)[C@@H]2O[Si](C)(C)C(C)(C)C	> 4 µM
Cc1cn([C@@H]2O[C@H](CO[Si](C)(C)C(C)(C)C)[C@@]3(OS(=O)(=O)C=C3NCC(=O)O)[C@H]2O[Si](C)(C)C(C)(C)C)c(=O)n(C)c1=O	> 10 µM
Cc1cn([C@@H]2O[C@H](CO[Si](C)(C)C(C)(C)C)C3(OS(=O)(=O)C=C3N)[C@H]2O[Si](C)(C)C(C)(C)C)c(=O)[nH]c1=O (stereo partly specified)	> 10 µM
Cc1cn([C@@H]2O[C@H](CO[Si](C)(C)C(C)(C)C)[C@@]3(OS(=O)(=O)C=C3NC(=O)C(=O)O)[C@H]2O[Si](C)(C)C(C)(C)C)c(=O)n(C)c1=O	> 50 µM
CCOC(=O)CNC(=O)NC1=CS(=O)(=O)O[C@@]12[C@@H](CO[Si](C)(C)C(C)(C)C)O[C@@H](n1cc(C)c(=O)n(C)c1=O)[C@@H]2O[Si](C)(C)C(C)(C)C	> 2 µM
